# Test system: AVEFA
# Test: Post-emergence herbicidal effect, greenhouse pot test
# Format: in vivo, Avena fatua
# Particulars: Avena fatua, 504 h, 80 g/ha, visual rating about 3 weeks after treatment, read-out: Post-emergence effect against AVEFA
Reported Metric: pest or weed control at 80 g/ha (%)
Express your answer in %, writing the number without its unit.

[[record]]
molecule = "COC(Oc1nn(-c2cc(F)ccc2F)c(-c2cncc(F)c2)c1C1CC1)C(=O)O (stereo not shown)"
reported_metric = "pest or weed control at 80 g/ha"
obs_value = 80

[[record]]
molecule = "CCOC(=O)C(OC)Oc1nn(-c2cc(F)ccc2F)c(-c2cncc(F)c2)c1C1CC1 (stereo not shown)"
reported_metric = "pest or weed control at 80 g/ha"
obs_value = 80

[[record]]
molecule = "COC(=O)C(OC)Oc1nn(-c2ncccc2F)c(-c2ccc(F)nc2)c1C(F)(F)F (stereo not shown)"
reported_metric = "pest or weed control at 80 g/ha"
obs_value = 80

[[record]]
molecule = "COC(=O)C(OC)Oc1nn(-c2ccccc2)c(-c2ccc(F)nc2)c1Br (stereo not shown)"
reported_metric = "pest or weed control at 80 g/ha"
obs_value = 90

[[record]]
molecule = "COC(=O)C(OC)Oc1nn(-c2ncccc2F)c(-c2cncc(F)c2)c1Br (stereo not shown)"
reported_metric = "pest or weed control at 80 g/ha"
obs_value = 90

[[record]]
molecule = "COC(=O)C(OC)Oc1nn(-c2ccccc2F)c(-c2ccc(F)nc2)c1Br (racemic)"
reported_metric = "pest or weed control at 80 g/ha"
obs_value = 80


input: Could you please provide reported pest or weed control at 80 g/ha for COC(=O)C(OC)Oc1nn(-c2cc(F)ccc2F)c(-c2cncc(F)c2)c1I (stereo not shown) ? Thanks!
output: 80
